Molecular target: recombinant human EP-2 receptor (Homo sapiens, UniProt P43116)
Construct: cell line stably transfected with full length cDNA encoding human Prostaglandin E2 was established
Sequence (P43116 whole entry): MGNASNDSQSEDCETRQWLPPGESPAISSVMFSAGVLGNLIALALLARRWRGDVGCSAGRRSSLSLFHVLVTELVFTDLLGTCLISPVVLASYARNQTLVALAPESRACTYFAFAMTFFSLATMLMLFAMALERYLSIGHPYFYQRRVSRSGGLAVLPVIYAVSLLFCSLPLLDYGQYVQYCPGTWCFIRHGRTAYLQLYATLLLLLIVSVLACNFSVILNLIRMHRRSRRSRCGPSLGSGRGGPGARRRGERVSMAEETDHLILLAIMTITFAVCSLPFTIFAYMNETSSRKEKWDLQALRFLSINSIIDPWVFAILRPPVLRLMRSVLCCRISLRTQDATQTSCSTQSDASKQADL
Assay: in vitro antagonist potency against recombinant human EP-2 receptor in CHO cells (cAMP, Protocol 1)
Conditions: functional Ki by Cheng-Prusoff from IC50; CHO cells stimulated with PGE2 (5 nM); cAMP readout; read-out: EP2 Ki
Excerpt: 1.0 Measurement of in vitro Antagonist Potency (IC50) of Compounds Against Recombinant Human Prostaglandin E2 Receptor in CHO Cells The prostaglandin E2 (EP-2) receptor is Gs coupled and agonism of the receptor by PGE2 results in activation of intracellular adenylate cyclase enzymes that synthesise the second messenger signalling molecule, adenosine 3′,5′-cyclic monophosphate (cAMP). […]
# Lookup of reported log10(Ki) keyed by entry
readout: log10(Ki) (log10 of the value in µM)

>>> testresult("CCOc1ccc(C(=O)N2CC(COc3ccc4nc(C)ccc4c3)(C(=O)O)C2)cc1")
-0.47
>>> testresult("COc1ccc(OC(=O)N2CC(COc3ccc4cc(OC)ccc4c3)(C(=O)O)C2)cc1")
-1.91
>>> testresult("COc1ccc2cc(OCC3(C(=O)O)CN(C(=O)Nc4ccc(F)cc4)C3)ccc2c1")
-1.25
>>> testresult("COc1ccc2cc(OCC3(C(=O)O)CN(C(=O)Nc4ccccc4F)C3)ccc2c1")
-0.99
>>> testresult("O=C(c1ccc(F)cc1)N1CC(COc2ccc(-c3ccccn3)cc2)(C(=O)O)C1")
-1.27
>>> testresult("O=C(c1ccc(F)cc1)N1CC(COc2ccc(-c3cccc(Cl)c3)cc2)(C(=O)O)C1")
-2.28
>>> testresult("O=C(c1ccc(Cl)cc1)N1CC(COc2ccc(-c3ccc(F)cc3)cc2)(C(=O)O)C1")
-2.96
>>> testresult("O=C(c1ccc(F)cc1)N1CC(COc2cnc(-c3ccc(Cl)cc3)nc2)(C(=O)O)C1")
-1.98

###

# Lookup of reported pKi keyed by entry
Target: recombinant human EP-2 receptor (Homo sapiens, UniProt P43116)
Construct: cell line stably transfected with full length cDNA encoding human Prostaglandin E2 was established
Test: in vitro antagonist potency against recombinant human EP-2 receptor in CHO cells (cAMP, Protocol 1)
Details: functional Ki by Cheng-Prusoff from IC50; CHO cells stimulated with PGE2 (5 nM); cAMP readout; read-out: EP2 Ki
pKi: −log10 of the molar value.
readout: pKi

>>> testresult("CSc1ccc(NC(=O)N2CC(COc3ccc(C)c4c3CCC4)(C(=O)O)C2)cc1 [Example 72]")
6.13
>>> testresult("O=C(C1CCC(F)(F)CC1)N1CC(COc2ccc(-c3ccc(Cl)cc3)cc2)(C(=O)O)C1 [Example 54]")
7.96
>>> testresult("O=C(c1ccccc1)N1CC(COc2cnc(-c3ccccc3)cn2)(C(=O)O)C1 [Example 45]")
7.25
>>> testresult("O=C(c1ccc(F)cc1)N1CC(COc2ccc(-c3ccc4ccccc4n3)cc2)(C(=O)O)C1 [Example 3]")
9.15

###

Target: recombinant human EP-2 receptor (Homo sapiens, UniProt P43116)
Construct: cell line stably transfected with full length cDNA encoding human Prostaglandin E2 was established; expressed in transfected cells; host or cells: CHO (Chinese hamster ovary) cells, stably transfected
Experiment: in vitro antagonist potency against recombinant human EP-2 receptor in CHO cells (cAMP, Protocol 1)
Format: cell-based
Details: functional Ki by Cheng-Prusoff from IC50; CHO cells stimulated with PGE2 (5 nM); cAMP readout; read-out: EP2 Ki
pKi: −log10 of the molar value.
# Lookup of reported pKi keyed by entry
readout: pKi

>>> testresult("COc1ccc2ccc(OCC3(C(=O)O)CN(C(=O)c4ccc(F)cc4)C3)cc2c1")
6.71
>>> testresult("COc1ccc2cc(OCC3(C(=O)O)CN(C(=O)Nc4cccc(Cl)c4)C3)ccc2c1")
8.12
>>> testresult("O=C(c1ccc(F)cc1)N1CC(COc2ccc(Br)cc2)(C(=O)O)C1")
6.21
>>> testresult("O=C(c1ccccc1)N1CC(COc2ccc(-c3ccccc3)cc2)(C(=O)O)C1")
7.56
>>> testresult("O=C(c1ccc(F)cc1)N1CC(COc2ccc(-c3ncc(Cl)cn3)cc2)(C(=O)O)C1")
8.18
>>> testresult("Cc1ccc2cc(OCC3(C(=O)O)CN(C(=O)c4ccc(F)cc4)C3)ccc2n1")
6.91
>>> testresult("O=C(c1ccc(F)cc1)N1CC(COc2ccc(-c3cc4ccccc4nn3)cc2)(C(=O)O)C1")
8.64
>>> testresult("Cc1ccc2cc(OCC3(C(=O)O)CN(C(=O)c4ccc(Cl)cc4)C3)ccc2n1")
7.00
>>> testresult("COc1ccc2cc(OCC3(C(=O)O)CN(C(=O)c4ccc(Cl)cc4)C3)ccc2c1")
8.22
>>> testresult("COc1ccc2cc(OCC3(C(=O)O)CN(C(=O)Nc4cccc(F)c4)C3)ccc2c1")
7.30
>>> testresult("O=C(c1ccc(F)cc1)N1CC(COc2ccc(-c3ccc(F)cc3)cc2)(C(=O)O)C1")
8.12
>>> testresult("Cc1cc(C)c2cc(OCC3(C(=O)O)CN(C(=O)c4ccc(F)cc4)C3)ccc2n1")
6.99
>>> testresult("CCCOc1ccc(OCC2(C(=O)O)CN(C(=O)Nc3cccc(Cl)c3Cl)C2)cc1")
6.96
>>> testresult("Cc1nc2ccc(OCC3(C(=O)O)CN(C(=O)c4ccc(F)cc4)C3)cc2s1")
6.69
>>> testresult("CCOc1ccccc1C(=O)N1CC(COc2ccc3cc(OC)ccc3c2)(C(=O)O)C1")
7.71
>>> testresult("COc1ccc2nc(OCC3(C(=O)O)CN(C(=O)c4ccccc4)C3)ccc2c1")
7.10
>>> testresult("O=C(c1ccc(F)cc1)N1CC(COc2cnc3ccccc3c2)(C(=O)O)C1")
6.52
>>> testresult("O=C(c1ccc(Cl)cc1)N1CC(COc2ccc(-c3ccccc3)nn2)(C(=O)O)C1")
7.16
>>> testresult("Cc1ccc2cc(OCC3(C(=O)O)CN(C(=O)c4ccccc4)C3)ccc2n1")
6.57
>>> testresult("Cc1ccc(-c2ccc(OCC3(C(=O)O)CN(C(=O)c4ccc(F)cc4)C3)cc2)cc1")
8.15
>>> testresult("O=C(c1ccc(F)cc1)N1CC(COc2ccc(-c3ccc(F)cc3F)cc2)(C(=O)O)C1")
8.25
>>> testresult("N#Cc1ccc(-c2ccc(OCC3(C(=O)O)CN(C(=O)c4ccc(F)cc4)C3)cc2)cc1")
8.64
>>> testresult("O=C(c1ccc(Cl)cc1)N1CC(COc2ccc(-c3ccc(Cl)cn3)cc2)(C(=O)O)C1")
8.72
>>> testresult("O=C(c1ccccc1)N1CC(COc2cccc(-c3ccccc3)c2)(C(=O)O)C1")
6.15
>>> testresult("CSc1ccc(NC(=O)N2CC(COc3cccc(C)c3C)(C(=O)O)C2)cc1")
6.22
>>> testresult("COc1cccc(C(=O)N2CC(COc3ccc4nc(C)ccc4c3)(C(=O)O)C2)c1")
6.63
>>> testresult("COc1ccc2cc(OCC3(C#N)CN(C(=O)c4ccc(F)cc4)C3)ccc2c1")
6.74
>>> testresult("CCCc1ccc(OCC2(C(=O)O)CN(C(=O)Nc3ccccc3CC)C2)cc1")
6.25
>>> testresult("O=C(c1ccccc1)N1CC(COc2ccc(-c3ccccc3)cn2)(C(=O)O)C1")
6.94
>>> testresult("O=C(c1ccc(F)cc1)N1CC(COc2ccc(-c3ccc(Cl)cn3)cc2)(C(=O)O)C1")
8.48
>>> testresult("CCOC(=O)C1(COc2ccc3cc(OC)ccc3c2)CN(C(=O)c2ccc(F)cc2)C1")
6.48
>>> testresult("O=C(c1ccc(Cl)cc1)N1CC(COc2cccc(-c3ccccc3)c2)(C(=O)O)C1")
6.28
>>> testresult("O=C(c1ccc(F)cc1)N1CC(COc2ccc3nc(-c4ccccn4)sc3c2)(C(=O)O)C1")
8.85
>>> testresult("O=C(c1ccc(Cl)cc1)N1CC(COc2ccc(-c3ccc(Cl)cc3)cc2)(C(=O)O)C1")
8.80

Hello, the source for this data is patent US20080280877A1, in case you need it.
